molecular target: T1, BSA (UniProt P02769 25-607); assay: spot ELISA, phage on coated protein
T1 construct: Control protein of the spot ELISA
T1 sequence (P02769 25-607 limits assumed): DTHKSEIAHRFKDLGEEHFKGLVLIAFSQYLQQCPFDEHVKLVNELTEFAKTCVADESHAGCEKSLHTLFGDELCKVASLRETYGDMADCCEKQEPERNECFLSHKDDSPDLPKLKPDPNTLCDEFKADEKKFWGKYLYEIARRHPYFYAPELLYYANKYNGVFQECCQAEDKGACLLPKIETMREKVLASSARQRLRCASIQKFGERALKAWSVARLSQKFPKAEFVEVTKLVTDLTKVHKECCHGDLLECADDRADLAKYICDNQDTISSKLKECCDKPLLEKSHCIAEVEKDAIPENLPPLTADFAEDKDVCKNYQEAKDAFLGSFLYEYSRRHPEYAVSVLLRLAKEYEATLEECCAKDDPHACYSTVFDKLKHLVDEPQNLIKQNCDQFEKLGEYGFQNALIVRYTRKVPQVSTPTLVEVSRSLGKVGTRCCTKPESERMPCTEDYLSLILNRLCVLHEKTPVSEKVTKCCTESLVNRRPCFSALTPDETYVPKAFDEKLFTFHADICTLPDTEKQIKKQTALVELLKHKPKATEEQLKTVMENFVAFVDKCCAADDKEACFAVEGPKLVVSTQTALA
Endpoint name: binding result

Binder | Result
DR4-selective phage clone 13 (ligand, also called DR4-13) SEETISTVQEKQQNISPLVRERGPQRVAAHITGTRGRSNTLSSPNSKNEKALGRKINSWESSRSGHSFLSNLHLRNGELVIHEKGFYYIYSQTAFRFKEEIKEGTGNDKQMVQYIYKWTDYPDPILLMKSARNSCWSKDAEYGLYSIYQGGIFELKENDRIFVSVTNEHLIDMDHEASFFGAFLVG | no binding
DR4-selective phage clone 9 (ligand, also called DR4-9) SEETISTVQEKQQNISPLVRERGPQRVAAHITGTRGRSNTLSSPNSKNEKALGRKINSWESSRSGHSFLSNLHLRNGELVIHEKGFYYIYSQTAFRFSEEIKERTRNDKQMVQYIYKWTDYPDPILLMKSARNSCWSKDAEYGLYSIYQGGIFELKENDRIFVSVTNEHLIDMDHEASFFGAFLVG | no binding
DR4-selective phage clone 8 (ligand, also called DR4-8) SEETISTVQEKQQNISPLVRERGPQRVAAHITGTRGRSNTLSSPNSKNEKALGRKINSWESSRSGHSFLSNLHLRNGELVIHEKGFYYIYSQTAFRFSEEIKEVTRNDKQMVQYIYKWTDYPDPILLMKSARNSCWSKDAEYGLYSIYQGGIFELKENDRIFVSVTNEHLIDMDHEASFFGAFLVG | no binding
DR4-selective phage clone 11 (ligand, also called DR4-11) SEETISTVQEKQQNISPLVRERGPQRVAAHITGTRGRSNTLSSPNSKNEKALGRKINSWESSRSGHSFLSNLHLRNGELVIHEKGFYYIYSQTAFRFSEEIKEGTSNDKQMVQYIYKWTDYPDPILLMKSARNSCWSKDAEYGLYSIYQGGIFELKENDRIFVSVTNEHLIDMDHEASFFGAFLVG | no binding
